Values from paper PMC5420417

Molecular target: aldose reductase (AR) (Rattus norvegicus)
Construct: The rat lenses were homogenized in 0.1 M sodium phosphate buffer (pH 6.2) and centrifuged; from tissue; host or cells: lens of Sprague-Dawley rats (homogenate supernatant)
Assay: Aldose reductase (AR) inhibitory activity, rat lens homogenate, decrease of β-NADPH absorption at 340 nm
Type: biochemical, Sprague-Dawley rats
Details: rat lens AR, DL-glyceraldehyde substrate; mean ± SD, triplicate; read-out: IC50 AR
pIC50: −log10 of the molar value.

compound	reported.relation	pIC50
O=C(/C=C/c1ccc(O)c(O)c1)OC1CC(O)(C(=O)O)CC(O)C1OC(=O)/C=C/c1ccc(O)c(O)c1 (centres unmarked)	=	5.72
O=c1c(O[C@@H]2O[C@H](CO)[C@@H](O)[C@H](O)[C@H]2O)c(-c2ccc(O)c(O)c2)oc2cc(O)cc(O)c12	=	5.48
O=C(/C=C/c1ccc(O)c(O)c1)OC1CC(OC(=O)/C=C/c2ccc(O)c(O)c2)(C(=O)O)CC(O)C1O (centres unmarked)	=	6.66
COc1c(O)cc2oc(-c3ccc(O)c(O)c3)c(OC3OC(CO)C(O)C(O)C3O)c(=O)c2c1O (centres unmarked) [Compound 8, patuletin-3-O-glucoside]	=	5.50
CC1(C)C(O)CCC2(C)C3CCC4CC3(CCC12)CC4(O)COC1OC(CO)C(O)C(O)C1O (centres unmarked) [Compound 17, iwayoside A]	<	3.70
